- System Tested: Transcription factor Sp1 (Homo sapiens) (UniProt P08047)
- Sequence (P08047 whole entry, looked up): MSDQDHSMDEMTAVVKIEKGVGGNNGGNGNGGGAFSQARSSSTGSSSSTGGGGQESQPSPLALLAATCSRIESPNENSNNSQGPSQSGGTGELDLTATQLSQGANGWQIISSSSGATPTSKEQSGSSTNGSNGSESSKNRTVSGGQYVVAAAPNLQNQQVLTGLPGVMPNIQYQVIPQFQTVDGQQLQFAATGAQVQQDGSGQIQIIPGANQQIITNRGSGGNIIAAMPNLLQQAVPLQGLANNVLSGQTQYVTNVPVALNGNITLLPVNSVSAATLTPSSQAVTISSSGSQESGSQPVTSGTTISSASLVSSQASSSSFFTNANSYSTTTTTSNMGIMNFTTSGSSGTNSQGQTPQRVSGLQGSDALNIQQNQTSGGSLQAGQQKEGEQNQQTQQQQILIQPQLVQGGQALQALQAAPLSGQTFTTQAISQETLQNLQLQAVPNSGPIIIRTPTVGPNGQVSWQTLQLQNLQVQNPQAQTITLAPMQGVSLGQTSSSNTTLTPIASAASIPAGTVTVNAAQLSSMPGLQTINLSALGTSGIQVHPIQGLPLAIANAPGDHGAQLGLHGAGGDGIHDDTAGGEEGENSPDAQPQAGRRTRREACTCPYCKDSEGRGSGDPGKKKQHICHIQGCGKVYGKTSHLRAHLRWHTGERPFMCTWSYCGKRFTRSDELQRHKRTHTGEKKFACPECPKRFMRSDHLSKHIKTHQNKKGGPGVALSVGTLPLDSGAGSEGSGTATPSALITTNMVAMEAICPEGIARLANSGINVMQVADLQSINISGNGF
- Assay Details: ATG_Sp1_CIS: Attagene CIS-FACTORIAL HepG2 Assay for human Specificity Protein 1 (Sp1) (AID 2282961)
- Reported Conditions: HepG2 Sp1 cis-reporter transcription, actives raise or lower the signal
Activity calls are given as the source filed them. The calls were made as follows: active = hit-call score of the fitted dose curve at least 0.9, where 1 is the maximum; inactive = score below 0.9.
Select the matching outcome among active, inactive

QUERY: Give the logged outcome of this assay for the following molecule: COc1cc([N+](=O)[O-])ccc1N
RESULT: inactive

====

- Assay Details: ATG_EGR_CIS: Attagene CIS-FACTORIAL HepG2 Assay for human Early Growth Response 1 (EGR1) (AID 2282938)
- Reported Conditions: HepG2 Attagene CIS-FACTORIAL EGR reporter mRNA; actives raise or lower the signal
Active and inactive are the calls of the source. Rule for the calls: active = hit-call score of the fitted dose curve at least 0.9, where 1 is the maximum; inactive = score below 0.9.
Select the matching outcome among active, inactive

# count of solved cases: 2
- CC=O: inactive
- O=C1c2ccc(O)c(O)c2C(=O)c2c(O)ccc(O)c21: inactive

QUERY: Give the logged outcome of this assay for the following molecule: Cn1sccc1=O
RESULT: active

QUERY: Give the logged outcome of this assay for the following molecule: C[N+](C)(CCCNS(=O)(=O)CCC(F)(F)C(F)(F)C(F)(F)C(F)(F)C(F)(F)C(F)(F)F)CC(=O)[O-]
RESULT: inactive

QUERY: Give the logged outcome of this assay for the following molecule: O=S(=O)(O)C(F)(F)C(F)(F)C(F)(F)C(F)(F)C(F)(F)C(F)(F)C(F)(F)C(F)(F)C(F)(F)C(F)(F)F
RESULT: inactive

QUERY: Give the logged outcome of this assay for the following molecule: CCCCCCCCC(C)=O
RESULT: inactive

QUERY: Give the logged outcome of this assay for the following molecule: CS(=O)(=O)c1ccc([C@@H](CC2CCCC2)C(=O)Nc2cnccn2)cc1Cl
RESULT: active

QUERY: Give the logged outcome of this assay for the following molecule: CCCCCCCCCCCC(=O)O
RESULT: inactive

QUERY: Give the logged outcome of this assay for the following molecule: CCc1cccc(CC)c1N(COC)C(=O)CS(=O)(=O)O
RESULT: inactive

QUERY: Give the logged outcome of this assay for the following molecule: FC(F)(F)C(F)(F)C(F)(F)C(F)(F)I
RESULT: inactive

QUERY: Give the logged outcome of this assay for the following molecule: O=C(O)CCC(F)(F)C(F)(F)C(F)(F)C(F)(F)C(F)(F)C(F)(F)F
RESULT: inactive

QUERY: Give the logged outcome of this assay for the following molecule: COc1cc(OC)nc(NC(=O)NS(=O)(=O)Nc2ccccc2C(=O)N(C)C)n1
RESULT: inactive

QUERY: Give the logged outcome of this assay for the following molecule: CCCCc1oc2ccccc2c1C(=O)c1cc(I)c(OCCN(CC)CC)c(I)c1
RESULT: active

QUERY: Give the logged outcome of this assay for the following molecule: CCCCCCCCCCCCCCCCCC[N+](C)(C)Cc1ccccc1
RESULT: inactive

QUERY: Give the logged outcome of this assay for the following molecule: CC(=O)Nc1ccc(O)cc1
RESULT: inactive

QUERY: Give the logged outcome of this assay for the following molecule: C[C@]12CC[C@@H]3c4ccc(O)cc4CC[C@H]3[C@@H]1CC[C@@H]2OC(=O)CCC1CCCC1
RESULT: inactive

QUERY: Give the logged outcome of this assay for the following molecule: CCCCCCCC(OC)OC
RESULT: inactive

QUERY: Give the logged outcome of this assay for the following molecule: O=C(CCCN1CCC(O)(c2ccc(Cl)cc2)CC1)c1ccc(F)cc1
RESULT: active

QUERY: Give the logged outcome of this assay for the following molecule: O=C(O)CN(CCCN(CC(=O)O)CC(=O)O)CC(=O)O
RESULT: active

QUERY: Give the logged outcome of this assay for the following molecule: Cc1cncc(C)c1
RESULT: inactive

QUERY: Give the logged outcome of this assay for the following molecule: Cc1ccc2ccc3ccc(C)cc3c2c1
RESULT: inactive

QUERY: Give the logged outcome of this assay for the following molecule: Brc1ccc(Oc2ccc(Br)cc2Br)cc1
RESULT: inactive

QUERY: Give the logged outcome of this assay for the following molecule: FC(OC(F)(F)C(F)(F)C(F)(F)F)C(F)(F)F (stereo unspecified)
RESULT: inactive
